Value source: ChEMBL document CHEMBL1150207

test system: SK-MEL; assay: Cytotoxicity against human SK-MEL cells after 6 days by MTT assay; type: functional; settings: 144 h, read-out: ED50 (the source's name)
Provide the recorded EC50 for the entries that follow.

Take a look at these entries with their results.
structure_smiles_string=COc1cc(-c2cc(=O)c3ccc(O)cc3o2)cc(OC)c1OC test_value="> 25 µg/mL"
structure_smiles_string=COC(=O)c1c(-c2ccc(OC)c(OC)c2)oc2ccccc2c1=O test_value="> 25 µg/mL"
structure_smiles_string=O=c1cc(-c2cccc(O)c2)oc2ccc(O)cc12 test_value="> 25 µg/mL"

Respectfully, I request EC50 for each entry included below.
1. COC(=O)c1c(-c2ccc(Br)cc2)oc2ccccc2c1=O
2. COC(=O)c1c(-c2ccc(OC)cc2)oc2ccccc2c1=O
3. COc1ccc2oc(-c3ccc([N+](=O)[O-])cc3)c(C(=O)O)c(=O)c2c1
4. COC(=O)c1c(-c2ccc(OCc3ccccc3)cc2)oc2ccc(OC)cc2c1=O
5. COc1ccc2oc(-c3cc(OC)c(OC)c(OC)c3)cc(=O)c2c1
6. COc1cc(-c2cc(=O)c3ccc(O)c(O)c3o2)cc(OC)c1O

Ans.
["> 25 µg/mL", "> 25 µg/mL", "> 25 µg/mL", "20.9 µg/mL", "> 25 µg/mL", "6.33 µg/mL"]

----------
Provide the recorded EC50 for the entries that follow.
tested on: MCF7; assay: Cytotoxicity against human MCF7 cells after 6 days by MTT assay; assay type: functional; conditions: MCF7, 144 h, read-out: ED50 (the source's name)

Take a look at these entries with their results.
structure_smiles_string=O=c1cc(-c2cccc(O)c2)oc2ccc(O)cc12 readout=EC50 test_value="> 25 µg/mL"
structure_smiles_string=COc1ccc(-c2oc3ccccc3c(=O)c2C(=O)O)cc1 readout=EC50 test_value="> 25 µg/mL"
structure_smiles_string=O=c1cc(-c2ccc([N+](=O)[O-])cc2)oc2c(O)c(O)ccc12 readout=EC50 test_value="4.69 µg/mL"
structure_smiles_string=COc1cc(-c2cc(=O)c3ccc(O)cc3o2)cc(OC)c1OC readout=EC50 test_value="> 25 µg/mL"
structure_smiles_string=O=C(O)c1c(-c2ccc([N+](=O)[O-])cc2)oc2ccccc2c1=O readout=EC50 test_value="> 25 µg/mL"
structure_smiles_string=COc1cc(-c2cc(=O)c3ccc(O)c(O)c3o2)cc(OC)c1OC readout=EC50 test_value="1.11 µg/mL"
structure_smiles_string=O=c1cc(-c2cccc(O)c2)oc2c(O)c(O)ccc12 readout=EC50 test_value="3.71 µg/mL"
structure_smiles_string=O=c1cc(-c2ccc([N+](=O)[O-])cc2)oc2ccc(O)cc12 readout=EC50 test_value="> 25 µg/mL"

Respectfully, I request EC50 for each entry included below.
1. COc1ccc2c(=O)c(C(=O)O)c(-c3ccc([N+](=O)[O-])cc3)oc2c1
2. COC(=O)c1c(-c2ccc([N+](=O)[O-])cc2)oc2cc(OC)ccc2c1=O
3. COc1cc(-c2cc(=O)c3ccc(O)c(O)c3o2)cc(OC)c1O[Si](C)(C)C(C)(C)C
4. COC(=O)c1c(-c2ccc(OC)cc2)oc2ccccc2c1=O

Ans.
["> 25 µg/mL", "> 25 µg/mL", "0.31 µg/mL", "> 25 µg/mL"]

Respectfully, I request EC50 for each entry included below.
1. COc1cc(-c2cc(=O)c3ccc(O)cc3o2)cc(OC)c1O[Si](C)(C)C(C)(C)C
2. COc1cc(-c2cc(=O)c3cc(O)ccc3o2)cc(OC)c1O

Ans.
["4.47 µg/mL", "> 25 µg/mL"]

Respectfully, I request EC50 for each entry included below.
1. COC(=O)c1c(-c2ccc(OCc3ccccc3)cc2)oc2ccc(OC)cc2c1=O
2. O=c1cc(-c2cccc(O)c2)oc2cccc(O)c12

Ans.
["> 25 µg/mL", "6.93 µg/mL"]

----------
system: SK-MEL; assay: Cytotoxicity against human SK-MEL cells after 6 days by MTT assay; type: functional; details: 144 h, read-out: ED50 (the source's name)
readout: EC50 (µg/mL)
One number for each entry, in µg/mL.

Take a look at these entries with their results.
structure_smiles_string=CC(C)(C)[Si](C)(C)Oc1ccc(-c2cc(=O)c3ccc(O)cc3o2)cc1 readout=EC50 test_value=5.64
structure_smiles_string=Nc1ccc(-c2cc(=O)c3ccc(O)cc3o2)cc1 readout=EC50 test_value=6.59

Respectfully, I request EC50 for each entry included below.
1. COC(=O)c1c(-c2ccc(NC(C)=O)cc2)oc2cc(OC)ccc2c1=O
2. Nc1ccc(-c2cc(=O)c3c(O)cc(O)cc3o2)cc1

Ans.
15.9
3.86

Qu. Which EC50 is listed for COc1cc(-c2cc(=O)c3ccc(OC(C)=O)c(OC(C)=O)c3o2)cc(OC)c1O[Si](C)(C)C(C)(C)C ?
Ans. 0.14
